Assay: Metabolic stability in rat liver microsomes assessed as compound remaining at 2 uM incubated for 30 mins
Format: ADME, Microsome
Details: read-out: Stabilty
Parameter: remaining at 0.5 h, 2 µM. Scope: all listed entries.
Just the number in %, nothing appended.

Known remaining at 0.5 h, 2 µM results, listed for orientation:
COMPOUND: C[C@@H](N1CN([C@H]2c3cc(Cl)ccc3CSc3ccccc32)n2ccc(=O)c(O)c2C1=O)C(F)(F)F
remaining at 0.5 h, 2 µM, %: 94.1

COMPOUND: O=C1c2c(O)c(=O)ccn2N(C2c3ccccc3CSc3ccccc32)CN1C(CF)CF (centres undefined)
remaining at 0.5 h, 2 µM, %: 84.9

COMPOUND: C[C@@H](N1CN([C@H]2c3cc(F)ccc3CSc3ccccc32)n2ccc(=O)c(O)c2C1=O)C(F)(F)F
remaining at 0.5 h, 2 µM, %: 98.9

Next:
### Prompt Would you mind telling me what remaining at 0.5 h, 2 µM value was observed for C[C@@H](N1CN([C@@H]2c3ccccc3SCc3c2ccc(F)c3F)n2ccc(=O)c(O)c2C1=O)C(F)(F)F ?
### Response 81.1
